- assay-overview: Metabolic stability in human hepatic microsomes
- Type: ADME
- condition-set: liver microsomes, read-out: Stability
readout-label: microsomal CLint (µL/min/mg)

Cc1cc(OCC2(O)CCS(=O)(=O)CC2)cc(C)c1-c1cccc(CNc2ccc(CCC(=O)O)c(F)c2)c1
2
CCS(=O)(=O)CCOc1cc(C)c(-c2cccc(COc3ccc(CCC(=O)O)c(F)c3)c2)c(C)c1
6
CCOCCOc1cc(C)c(-c2cccc(COc3ccc(CCC(=O)O)c(F)c3)c2)c(C)c1
8

P. Cc1cc(OCCCN2CCCC2=O)cc(C)c1-c1cccc(COc2ccc(CCC(=O)O)c(F)c2)c1
Q. CCS(=O)(=O)CCOc1cc(C)c(-c2cccc(CNc3ccc(CCC(=O)O)c(F)c3)c2)c(C)c1
R. Cc1cc(OC2CCS(=O)(=O)CC2)cc(C)c1-c1cccc(COc2ccc(CCC(=O)O)c(F)c2)c1
S. Cc1cccc(C)c1-c1cccc(COc2ccc(CCC(=O)O)cc2)c1
T. Cc1cccc(C)c1-c1cccc(COc2ccc(CCC(=O)O)c(F)c2)c1
[Q] Give the ascending ranking of the items by reported microsomal CLint. Lab note: final answer is the ordered label list.
[A] Q, R, P, S, T

###

- Tested on: HepG2
- assay-overview: Induction of apoptosis in human HepG2 cells assessed as caspase 3/7 activity at 10 uM after 24 hrs by caspase Glo assay relative to staurosporine
- Assay type: cell-based
- condition-set: hepg2, 24 h
The reader will find reported Activity values listed item by item below.
Reply with just the number (in %).

Sample records with Activity:
CCS(=O)(=O)CCOc1cc(C)c(-c2cccc(CNc3ccc(CCC(=O)O)c(F)c3)c2)c(C)c1
-1
CCOCCOc1cc(C)c(-c2cccc(CNc3ccc(CCC(=O)O)c(F)c3)c2)c(C)c1.Cl
5.3

[Q] Form field: reported Activity of Cc1cc(OCC2(O)CCS(=O)(=O)CC2)cc(C)c1-c1cccc(COc2ccc(CCC(=O)O)c(F)c2)c1
[A] -0.2

[Q] Which Activity reading was recorded for the compound Cc1cc(OCC2(O)CCS(=O)(=O)CC2)cc(C)c1-c1cccc(CNc2ccc(CCC(=O)O)c(F)c2)c1 ?
[A] 0.8

[Q] // returns reported Activity for input Cc1cccc(Oc2cc(C)c(-c3cccc(COc4ccc(CCC(=O)O)c(F)c4)c3)c(C)c2)n1.Cl
[A] -0.4

[Q] Find the recorded Activity belonging to Cc1cc(OCCCN2CCCC2=O)cc(C)c1-c1cccc(COc2ccc(CCC(=O)O)c(F)c2)c1 and report it.
[A] 0.2

###

- target-or-system: Free fatty acid receptor 1 (Rattus norvegicus, UniProt Q8K3T4)
- Sequence (Q8K3T4 whole entry): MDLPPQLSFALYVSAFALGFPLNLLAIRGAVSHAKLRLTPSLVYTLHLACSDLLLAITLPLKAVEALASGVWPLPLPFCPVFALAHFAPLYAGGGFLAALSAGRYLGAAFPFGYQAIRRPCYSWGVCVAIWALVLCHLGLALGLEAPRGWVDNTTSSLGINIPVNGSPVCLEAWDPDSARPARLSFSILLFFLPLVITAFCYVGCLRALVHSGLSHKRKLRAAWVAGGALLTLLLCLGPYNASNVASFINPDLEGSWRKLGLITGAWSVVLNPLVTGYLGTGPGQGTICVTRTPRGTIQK
- assay-overview: Displacement of 3-[4-({2',6'-dimethyl-6-[(4-[3H])phenylmethoxy]biphenyl-3-yl}methoxy)phenyl] propanoic acid from rat GPR40 receptor expressed in CHO cell membrane after 90 mins by liquid scintillation counting in the presence of 0.2% BSA
pKi: −log10 of the molar value.
readout-label: pKi

Use these answered entries as a reference point.
Cc1cc(OCC2CC2)cc(C)c1-c1cccc(COc2ccc(CCC(=O)O)cc2)c1
8.25
Cc1cc(OCC2(O)CCS(=O)(=O)CC2)cc(C)c1-c1cccc(COc2ccc(CCC(=O)O)c(F)c2)c1
8.09
Cc1cccc(C)c1-c1cccc(COc2ccc(CCC(=O)O)cc2)c1C
7.52
CCOCCOc1cc(C)c(-c2cccc(COc3ccc(CCC(=O)O)cc3)c2)c(C)c1
8.00
COc1ccc(-c2c(C)cccc2C)cc1COc1ccc(CCC(=O)O)cc1
5.00
CCOCCOc1cc(C)c(-c2cccc(COc3ccc(CCC(=O)O)c(F)c3)c2)c(C)c1
8.35
Cc1cc(OC2CCS(=O)(=O)CC2)cc(C)c1-c1cccc(CNc2ccc(CCC(=O)O)c(F)c2)c1
8.29
Cc1cc(OC2CCOCC2)cc(C)c1-c1cccc(COc2ccc(CCC(=O)O)c(F)c2)c1
8.17

A. CCS(=O)(=O)CCOc1cc(C)c(-c2cccc(COc3ccc(CCC(=O)O)c(F)c3)c2)c(C)c1
B. COc1cc(COc2ccc(CCC(=O)O)c(F)c2)cc(-c2c(C)cccc2C)c1
C. Cc1cccc(C)c1-c1cccc(COc2ccc(CCC(=O)O)cc2)c1
D. Cc1cc(OCCCN2CCCC2=O)cc(C)c1-c1cccc(COc2ccc(CCC(=O)O)c(F)c2)c1
[Q] Order by pKi, ascending. Use the labels to give the ranking in the order requested.
[A] B, C, D, A
(B: 6.92, C: 7.57, D: 8.01, A: 8.38)

The reported numbers originate from ChEMBL document CHEMBL2046346.
